molecular target: FLAG-tagged Vanin-1 (AA 22-493, T26I) (Homo sapiens, UniProt O95497, T26I); construct: FLAG-tagged Vanin-1 (AA 22-493, T26I, produced internally); FLAG; made in house; assay: Vanin-1 enzymatic assay; type: biochemical; conditions: 0.1 nM Vanin-1, 3 μM D-pantethine, pantothenic acid formation by RapidFire MS; geometric mean if multiple measurements; read-out: VNN-1 IC50
Sequence (O95497 22-493 T26I): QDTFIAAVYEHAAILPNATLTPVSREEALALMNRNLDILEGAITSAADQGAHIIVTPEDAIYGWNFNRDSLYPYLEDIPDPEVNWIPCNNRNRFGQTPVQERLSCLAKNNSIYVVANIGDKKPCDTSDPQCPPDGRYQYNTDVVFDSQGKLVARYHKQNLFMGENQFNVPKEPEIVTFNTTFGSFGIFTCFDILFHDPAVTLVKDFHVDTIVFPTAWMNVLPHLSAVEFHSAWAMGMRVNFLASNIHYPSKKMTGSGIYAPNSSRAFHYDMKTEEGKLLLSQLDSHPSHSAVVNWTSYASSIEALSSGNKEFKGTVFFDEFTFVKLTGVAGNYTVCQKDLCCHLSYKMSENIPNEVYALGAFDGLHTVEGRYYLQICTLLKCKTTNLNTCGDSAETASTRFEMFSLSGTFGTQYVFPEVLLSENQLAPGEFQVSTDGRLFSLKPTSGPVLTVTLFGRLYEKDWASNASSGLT
metric-name: pIC50
Numbers only, as −log10 of the molar value.

Recorded results for 5 molecules are shown here.
molecule	test-target	pIC50
CNS(=O)(=O)c1cccc([C@H](C)Nc2ccc(C(=O)N3CC[C@H](N(C)C(C)=O)C3)cn2)c1	FLAG-tagged Vanin-1 (AA 22-493, T26I) (Homo sapiens, UniProt O95497, T26I)	9.59
CC(=O)N(C)[C@H]1CCN(C(=O)c2ccc(NC(C)c3cccnc3)nc2)C1 (single isomer, unassigned) [Example 6.1.A]	FLAG-tagged Vanin-1 (AA 22-493, T26I) (Homo sapiens, UniProt O95497, T26I)	10.05
CN(C(=O)C1(C)CCC1)[C@H]1CCN(C(=O)c2ccc(NC3CCc4[nH]ncc43)nc2)C1 (stereo partly shown)	FLAG-tagged Vanin-1 (AA 22-493, T26I) (Homo sapiens, UniProt O95497, T26I)	9.54
CC[C@H](Nc1ccc(C(=O)N2CC[C@H](N(C)C(C)=O)C2)cn1)c1ccc(C(F)F)cc1	FLAG-tagged Vanin-1 (AA 22-493, T26I) (Homo sapiens, UniProt O95497, T26I)	8.63
CC(=O)N(C)[C@H]1CCN(C(=O)c2ccc(NC3CCc4ncccc43)nc2)C1 (stereo partly shown) [Example 1.37]	FLAG-tagged Vanin-1 (AA 22-493, T26I) (Homo sapiens, UniProt O95497, T26I)	9.21

Dear reader, for each entry below, please note its pIC50.
1. CC(=O)N(C)[C@H]1CCN(C(=O)c2ccc(N[C@@H](C)c3cccc(C#N)c3)nc2)C1
2. CC(=O)N(C)[C@H]1CCN(C(=O)c2ccc(NC(C)(C)c3cccnc3)nc2)C1
3. CN(C(=O)C1CC1)[C@H]1CCN(C(=O)c2ccc(NCc3ccc(Cl)nc3)nc2)C1
4. COC(=O)c1cccc(C(C)Nc2ccc(C(=O)N3CC[C@H](N(C)C(C)=O)C3)cn2)c1 (stereo partly shown)
5. Cc1ccncc1CNc1ccc(C(=O)N2CC[C@H](N(C)C(=O)C3(C)CCC3)C2)cn1
6. CC(=O)N(C)[C@H]1CCN(C(=O)c2ccc(NCc3cncc(Br)c3)nc2)C1

Response line:
1. 9.80
2. 9.80
3. 9.77
4. 9.47
5. 9.92
6. 9.11

Lab note: each molecule below needs its pIC50 filled in.
1. CC(=O)N(C)[C@H]1CCN(C(=O)c2ccc(NC(C)c3nccs3)nc2)C1 (single isomer, unassigned) [Example 5.1.A]
2. CC(=O)N(C)[C@H]1CCN(C(=O)c2ccc(NC3CCCc4cn[nH]c43)nc2)C1 (stereo partly shown)
3. C[C@H](Nc1ccc(C(=O)N2CCC(C)(C#N)C2)cn1)c1ccccc1 (stereo partly shown)
4. CN(C(=O)C1(C#N)CC1)[C@H]1CCN(C(=O)c2ccc(NC(C)(C)c3ccccc3)nc2)C1

Response line:
[10.05, 8.16, 9.72, 9.85]

Give measured pIC50 for every item shown.
1. Cc1ccncc1CNc1ccc(C(=O)N2CC[C@H](N(C)C(=O)C3CC3)C2)cn1
2. CN(C(=O)C1CCC1)[C@H]1CCN(C(=O)c2ccc(NCc3cccnc3)nc2)C1
3. CC(=O)N(C)[C@H]1CCN(C(=O)c2ccc(NC(C)(C)c3ccccc3)nc2)C1
4. CC(=O)N(C)[C@H]1CCN(C(=O)c2ccc(N[C@@H](C)c3ccc(Cl)nc3)nc2)C1
5. CC(=O)N(C)[C@H]1CCN(C(=O)c2ccc(N[C@@H](C)c3cccc(S(=O)(=O)N(C)C)c3)nc2)C1

Response line:
1. 10.15
2. 10.15
3. 9.92
4. 9.82
5. 9.03

Please give pIC50 for each item listed below.
1. CN(C(=O)C1(C)CCC1)[C@H]1CCN(C(=O)c2ccc(NC3(c4cncnc4)CC3)nc2)C1
2. CC(C)(Nc1ccc(C(=O)N2CC[C@H](N3CCOC3=O)C2)cn1)c1ccccc1
3. CC(=O)N(C)[C@H]1CCN(C(=O)c2ccc(NC3(c4cncc(C(F)(F)F)c4)CC3)nc2)C1
4. CN(C(=O)C1CC1)[C@H]1CCN(C(=O)c2ccc(NCc3ccc(N)nc3)nc2)C1

Response line:
9.48
9.92
9.68
9.57

----------
target: FLAG-tagged Vanin-1 (AA 22-493, T26I) (Homo sapiens, UniProt O95497, T26I); construct: FLAG-tagged Vanin-1 (AA 22-493, T26I, produced internally); FLAG; experiment: Vanin-1 enzymatic assay; details: 0.1 nM Vanin-1, 3 μM D-pantethine, pantothenic acid formation by RapidFire MS; geometric mean if multiple measurements; read-out: VNN-1 IC50
pIC50: −log10 of the molar value.
Please use satisfied whenever pIC50 is not below 9, and not satisfied whenever it is.

compound	test-target	discrete-label
CC(=O)N(C)[C@H]1CCN(C(=O)c2ccc(N[C@@H](C)c3cccc(C(F)(F)F)c3)nc2)C1	FLAG-tagged Vanin-1 (AA 22-493, T26I) (Homo sapiens, UniProt O95497, T26I)	satisfied
CN(C(=O)C1CC1)[C@H]1CCN(C(=O)c2ccc(NC3(c4cncnc4)CC3)nc2)C1	FLAG-tagged Vanin-1 (AA 22-493, T26I) (Homo sapiens, UniProt O95497, T26I)	satisfied

Prompt line: Has CNS(=O)(=O)c1cccc(C(C)Nc2ccc(C(=O)N3CC[C@H](N(C)C(C)=O)C3)cn2)c1 (some centres unmarked) a recorded pIC50 greater than or equal to 9?
Response line: satisfied

Prompt line: API: above_or_equal(metric=pIC50, cutoff=9) for item "CC(=O)N(C)[C@H]1CCN(C(=O)c2ccc(NCc3ccncc3)nc2)C1"
Response line: not satisfied

----------
biological target: FLAG-tagged Vanin-1 (AA 22-493, T26I) (Homo sapiens, UniProt O95497, T26I); construct: FLAG-tagged Vanin-1 (AA 22-493, T26I, produced internally); FLAG; assay: Vanin-1 enzymatic assay; conditions: 0.1 nM Vanin-1, 3 μM D-pantethine, pantothenic acid formation by RapidFire MS; geometric mean if multiple measurements; read-out: VNN-1 IC50
metric-name: IC50
The reply must contain the numeric value and, after it, the unit.

Below are worked cases with known answers.
molecule	reading
CC(=O)N(C)[C@H]1CCN(C(=O)c2ccc(NC3(c4ccc(C(F)(F)F)nc4)CC3)nc2)C1 [Example 1.20]	0.23 nM
CC(=O)N(C)[C@H]1CCN(C(=O)c2ccc(NCc3cccc(-c4nc(CC(F)(F)F)no4)c3)nc2)C1 [Example 1.48]	0.98 nM
CC(=O)N(C)[C@H]1CCN(C(=O)c2ccc(NCc3cccnc3)nc2)C1 [Example 7.1]	0.13 nM
CC(=O)N(C)[C@H]1CCN(C(=O)c2ccc(NCc3ccc(Cl)cc3)nc2)C1 [Example 4.1]	0.68 nM
CN(C(=O)C1(C)CCC1)[C@H]1CCN(C(=O)c2ccc(NCc3cccnc3Cl)nc2)C1 [Example 1.7]	0.12 nM

Record IC50 per entry; entries follow.
1. CN(C(=O)C1(C)CCC1)[C@H]1CCN(C(=O)c2ccc(NC(C)(C)c3cccnc3)nc2)C1 [Example 8.1]
2. O=C(c1ccc(NCc2ccc(Cl)cc2)nc1)N1CC[C@H](N2CCCC2=O)C1 [Example 8.9]
3. CN(C(=O)C1CC1)[C@H]1CCN(C(=O)c2ccc(NCc3cnccc3C(F)(F)F)nc2)C1 [Example 1.33]

Response line:
["0.11 nM", "0.32 nM", "0.46 nM"]

Prompt line: Quick check: IC50 on FLAG-tagged Vanin-1 (AA 22-493, T26I) (Homo sapiens, UniProt O95497, T26I), item COc1ccncc1CNc1ccc(C(=O)N2CC[C@H](N(C)C(=O)C3(C)CCC3)C2)cn1 [Example 1.22] ?
Response line: 0.24 nM

----------
Would you kindly list pIC50 for each of these molecules?
biological target: FLAG-tagged Vanin-1 (AA 22-493, T26I) (Homo sapiens, UniProt O95497, T26I); construct: FLAG-tagged Vanin-1 (AA 22-493, T26I, produced internally); FLAG; experiment: Vanin-1 enzymatic assay; conditions: 0.1 nM Vanin-1, 3 μM D-pantethine, pantothenic acid formation by RapidFire MS; geometric mean if multiple measurements; read-out: VNN-1 IC50
Numbers only, as −log10 of the molar value.

molecule	pIC50
CNC(=O)c1cccc([C@H](C)Nc2ccc(C(=O)N3CC[C@H](N(C)C(C)=O)C3)cn2)c1	9.57
CC(=O)N(C)[C@H]1CCN(C(=O)c2ccc(N[C@@H](C)c3ccc(C#N)nc3)nc2)C1	9.13
CC(=O)N(C)[C@H]1CCN(C(=O)c2ccc(NCc3cccc(Cl)c3)nc2)C1	8.99
CN(C(=O)C1CC(F)(F)C1)[C@H]1CCN(C(=O)c2ccc(NC(C)(C)c3ccccc3)nc2)C1	10.05
Cc1ncccc1CNc1ccc(C(=O)N2CC[C@H](N(C)C(=O)C3CC3)C2)cn1	9.68
CC1(C#N)CCN(C(=O)c2ccc(NC(C)(C)c3cccnc3)nc2)C1 (centres unmarked)	10.10

Provide each entry's pIC50 from the list below.
1. CC(=O)N(C)[C@H]1CCN(C(=O)c2ccc(N[C@@H](C)c3ccccc3)nc2)C1
2. CC(=O)N(C)[C@H]1CCN(C(=O)c2ccc(NC3CCc4[nH]ncc43)nc2)C1 (some centres unmarked)

Response line:
1: 9.70; 2: 9.28
